# Test system: Escherichia coli ATCC 10536
# test-protocol: Minimum inhibiting concentration (MIC value) in microtitre plates
# Type: cell-based
# Set-up: unit not given here
# condition-summary: serial dilution 1:2, 48 hours at 37° C., <20% growth compared with growth control
# Experimental: Determination of the Minimum Inhibiting Concentration (MIC Value) in Microtitre Plates Nutrient Medium: Casein/soybean flour peptone bouillon for the preparation of the precultures of the test bacteria and yeast. […] After incubation, the growth is determined by reference to the turbidity of the test batches (optical density) at 620 nm in a microplate reader. […]
recorded-metric: MIC value ATCC 10536
The answer should be a number; do not append a unit.

Ask | Param item = c1ccc(CNCc2ccc(-c3ccc(CNCc4ccccc4)cc3)cc2)cc1 [Compound of formula 15] ; retrieve measured MIC value ATCC 10536.
Reply | 120

Ask | Need MIC value ATCC 10536 of CCCCC(CC)CNCc1ccc(-c2ccc(CNCC(CC)CCCC)cc2)cc1 (stereo not shown) [Compound of formula 13] , thanks.
Reply | 7.5

Ask | If you can, please state the reported MIC value ATCC 10536 value of CCC(C)NCc1ccc(-c2ccc(CNC(C)CC)cc2)cc1 (stereo not shown) [Compound of formula 8] .
Reply | 60

====

# Test system: Escherichia coli ATCC 10536
# test-protocol: Minimum inhibiting concentration (MIC value) in microtitre plates
# Type: cell-based
# Set-up: unit not given here
# condition-summary: serial dilution 1:2, 48 hours at 37° C., <20% growth compared with growth control
I'd appreciate it if you could supply MIC value ATCC 10536 values for the items below.
Lab note: jot the number down without any unit.

Ask | Given the compound CC(C)NCc1ccc(-c2ccc(CNC(C)C)cc2)cc1 [Compound of formula 7] , what is its reported MIC value ATCC 10536?
Reply | 30

Ask | I would be grateful if you could share the reported MIC value ATCC 10536 for c1cc(-c2ccc(CNC3CCCCC3)cc2)ccc1CNC1CCCCC1 [Compound of formula 16] .
Reply | 120

Ask | I'd like to know its MIC value ATCC 10536. The compound in question is c1ccc(CCNCc2ccc(-c3ccc(CNCCc4ccccc4)cc3)cc2)cc1 [Compound of formula 17]
Reply | 15

Ask | // MIC value ATCC 10536 lookup, key: CC(C)CCNCc1ccc(-c2ccc(CNCCC(C)C)cc2)cc1 [Compound of formula 11]
Reply | 30

Ask | Which MIC value ATCC 10536 is listed for CCCCCCCCCCCCCNCc1ccc(-c2ccc(CNCCCCCCCCCCCCC)cc2)cc1 [Compound of formula 6] ?
Reply | 30

====

# System: Escherichia coli ATCC 10536
# test-protocol: Minimum inhibiting concentration (MIC value) in microtitre plates
# Type: cell-based
# Parameters: unit not given here
# condition-summary: serial dilution 1:2, 48 hours at 37° C., <20% growth compared with growth control
Hi there, I'd appreciate the recorded MIC value ATCC 10536 for every entry that follows.

Ask | For the record CCCCCCCCCCNCc1ccc(-c2ccc(CNCCCCCCCCCC)cc2)cc1 [Compound of formula 4] , what value of MIC value ATCC 10536 is listed for Escherichia coli ATCC 10536?
Reply | 15

Ask | Under Escherichia coli ATCC 10536: MIC value ATCC 10536 value of CCCCCCCCN(CCCCCCCC)Cc1ccc(-c2ccc(CN(CCCCCCCC)CCCCCCCC)cc2)cc1 [Compound of formula 28] ?
Reply | 15

Ask | Entry CCCCN(CCCC)Cc1ccc(-c2ccc(CN(CCCC)CCCC)cc2)cc1 [Compound of formula 25] , system Escherichia coli ATCC 10536: what MIC value ATCC 10536 was measured?
Reply | >120

Ask | Reported MIC value ATCC 10536 for Escherichia coli ATCC 10536, given CC(C)CC(C)NCc1ccc(-c2ccc(CNC(C)CC(C)C)cc2)cc1 (stereo not shown) [Compound of formula 12] ?
Reply | 60

Ask | Escherichia coli ATCC 10536 / MIC value ATCC 10536 / CCCCCCCCNCc1ccc(-c2ccc(CNCCCCCCCC)cc2)cc1 [Compound of formula 3] : value?
Reply | <3.75

Ask | # query: MIC value ATCC 10536 | item CCCCN(C)Cc1ccc(-c2ccc(CN(C)CCCC)cc2)cc1 [Compound of formula 21] | system: Escherichia coli ATCC 10536
Reply | 120

Ask | Any idea what MIC value ATCC 10536 came out for c1cc(-c2ccc(CN3CCOCC3)cc2)ccc1CN1CCOCC1 [Compound of formula 18] on Escherichia coli ATCC 10536?
Reply | >120

Ask | Give the reported MIC value ATCC 10536 for CCCCCCN(CCCCCC)Cc1ccc(-c2ccc(CN(CCCCCC)CCCCCC)cc2)cc1 [Compound of formula 27] (system: Escherichia coli ATCC 10536).
Reply | >120

Ask | # query: MIC value ATCC 10536 | item CCCNCc1ccc(-c2ccc(CNCCC)cc2)cc1 [Compound of formula 2] | system: Escherichia coli ATCC 10536
Reply | 15

Ask | Quick check: MIC value ATCC 10536 on Escherichia coli ATCC 10536, item CC(=O)N1CCN(Cc2ccc(-c3ccc(CN4CCN(C(C)=O)CC4)cc3)cc2)CC1 [Compound of formula 19] ?
Reply | >120

Ask | Provide the documented MIC value ATCC 10536 with Escherichia coli ATCC 10536 as the system for CCCCCN(CCCCC)Cc1ccc(-c2ccc(CN(CCCCC)CCCCC)cc2)cc1 [Compound of formula 26]
Reply | >120

Ask | Please tell me: MIC value ATCC 10536 of c1coc(CNCc2ccc(-c3ccc(CNCc4ccco4)cc3)cc2)c1 [Compound of formula 20] , system Escherichia coli ATCC 10536?
Reply | >120

Ask | Notebook entry, Escherichia coli ATCC 10536 assay: MIC value ATCC 10536 of c1cc(-c2ccc(CN3CCCCCC3)cc2)ccc1CN1CCCCCC1 [Compound of formula 31] = ?
Reply | 120

Ask | Test system Escherichia coli ATCC 10536; read-out MIC value ATCC 10536; what value for CCCCCCCCCCCNCc1ccc(-c2ccc(CNCCCCCCCCCCC)cc2)cc1 [Compound of formula 5] ?
Reply | 30

Ask | Which MIC value ATCC 10536 is reported with Escherichia coli ATCC 10536 for this entry: CCCCCCCCCCCCN(C)Cc1ccc(-c2ccc(CN(C)CCCCCCCCCCCC)cc2)cc1 [Compound of formula 22] ?
Reply | 15

Ask | Recorded MIC value ATCC 10536 for CCCC(C)NCc1ccc(-c2ccc(CNC(C)CCC)cc2)cc1 (stereo not shown) [Compound of formula 10] with Escherichia coli ATCC 10536, please?
Reply | 30

These data points were gathered from patent US20060052375A1.
